conditions: in cyclohexane, 318.15 K
measurement-kind: solubility (mole fraction)

INSERT INTO assay_data (smiles_record, endpoint_value) VALUES
  ('C#CC(C)(C)NC(=O)c1cc(Cl)cc(Cl)c1', 0.00101);

###

conditions: in methanol, 288.15 K
measurement-kind: solubility (mole fraction)

INSERT INTO assay_data (smiles_record, measurement_kind, endpoint_value) VALUES
  ('C#CC(C)(C)NC(=O)c1cc(Cl)cc(Cl)c1', 'solubility (mole fraction)', 0.00892);

###

details: in toluene, 308.15 K
measurement-kind: solubility (mole fraction)

INSERT INTO measurements (smiles_record, endpoint_value) VALUES
  ('C#CC(C)(C)NC(=O)c1cc(Cl)cc(Cl)c1', 0.00735);

###

details: in methanol, 298.15 K
measurement-kind: solubility (mole fraction)

INSERT INTO assay_data (smiles_record, endpoint_value) VALUES
  ('C#CC(C)(C)NC(=O)c1cc(Cl)cc(Cl)c1', 0.0124);

###

details: in isopropanol, 308.15 K
measurement-kind: solubility (mole fraction)

INSERT INTO measurements (smiles_record, measurement_kind, endpoint_value) VALUES
  ('C#CC(C)(C)NC(=O)c1cc(Cl)cc(Cl)c1', 'solubility (mole fraction)', 0.0112);

###

conditions: in isopropanol, 318.15 K
measurement-kind: solubility (mole fraction)

INSERT INTO results (smiles_record, endpoint_value) VALUES
  ('C#CC(C)(C)NC(=O)c1cc(Cl)cc(Cl)c1', 0.0171);

###

conditions: in cyclohexane, 288.15 K
measurement-kind: solubility (mole fraction)

INSERT INTO assay_data (smiles_record, endpoint_value) VALUES
  ('C#CC(C)(C)NC(=O)c1cc(Cl)cc(Cl)c1', 0.000185);

###

settings: in ethanol, 293.15 K
measurement-kind: solubility (mole fraction)

INSERT INTO assay_data (smiles_record, endpoint_value) VALUES
  ('C#CC(C)(C)NC(=O)c1cc(Cl)cc(Cl)c1', 0.011);

###

conditions: in cyclohexane, 293.15 K
measurement-kind: solubility (mole fraction)

INSERT INTO results (smiles_record, endpoint_value) VALUES
  ('C#CC(C)(C)NC(=O)c1cc(Cl)cc(Cl)c1', 0.000293);

###

conditions: in methanol, 308.15 K
measurement-kind: solubility (mole fraction)

INSERT INTO assay_data (smiles_record, endpoint_value) VALUES
  ('C#CC(C)(C)NC(=O)c1cc(Cl)cc(Cl)c1', 0.017);

###

settings: in toluene, 318.15 K
measurement-kind: solubility (mole fraction)

INSERT INTO measurements (smiles_record, measurement_kind, endpoint_value) VALUES
  ('C#CC(C)(C)NC(=O)c1cc(Cl)cc(Cl)c1', 'solubility (mole fraction)', 0.0113);

###

conditions: in methanol, 293.15 K
measurement-kind: solubility (mole fraction)

INSERT INTO results (smiles_record, endpoint_value) VALUES
  ('C#CC(C)(C)NC(=O)c1cc(Cl)cc(Cl)c1', 0.0101);

###

details: in cyclohexane, 283.15 K
measurement-kind: solubility (mole fraction)

INSERT INTO results (smiles_record, measurement_kind, endpoint_value) VALUES
  ('C#CC(C)(C)NC(=O)c1cc(Cl)cc(Cl)c1', 'solubility (mole fraction)', 0.000135);

###

conditions: in toluene, 323.15 K
measurement-kind: solubility (mole fraction)

INSERT INTO measurements (smiles_record, measurement_kind, endpoint_value) VALUES
  ('C#CC(C)(C)NC(=O)c1cc(Cl)cc(Cl)c1', 'solubility (mole fraction)', 0.0124);

###

details: in isopropanol, 288.15 K
measurement-kind: solubility (mole fraction)

INSERT INTO measurements (smiles_record, measurement_kind, endpoint_value) VALUES
  ('C#CC(C)(C)NC(=O)c1cc(Cl)cc(Cl)c1', 'solubility (mole fraction)', 0.00351);

###

conditions: in toluene, 278.15 K
measurement-kind: solubility (mole fraction)

INSERT INTO measurements (smiles_record, endpoint_value) VALUES
  ('C#CC(C)(C)NC(=O)c1cc(Cl)cc(Cl)c1', 0.00179);

###

settings: in ethanol, 278.15 K
measurement-kind: solubility (mole fraction)

INSERT INTO results (smiles_record, endpoint_value) VALUES
  ('C#CC(C)(C)NC(=O)c1cc(Cl)cc(Cl)c1', 0.0071);

###

details: in methanol, 303.15 K
measurement-kind: solubility (mole fraction)

INSERT INTO measurements (smiles_record, endpoint_value) VALUES
  ('C#CC(C)(C)NC(=O)c1cc(Cl)cc(Cl)c1', 0.0145);

###

conditions: in ethanol, 308.15 K
measurement-kind: solubility (mole fraction)

INSERT INTO measurements (smiles_record, endpoint_value) VALUES
  ('C#CC(C)(C)NC(=O)c1cc(Cl)cc(Cl)c1', 0.0174);

###

conditions: in methanol, 278.15 K
measurement-kind: solubility (mole fraction)

INSERT INTO results (smiles_record, endpoint_value) VALUES
  ('C#CC(C)(C)NC(=O)c1cc(Cl)cc(Cl)c1', 0.00654);

###

details: in toluene, 283.15 K
measurement-kind: solubility (mole fraction)

INSERT INTO measurements (smiles_record, endpoint_value) VALUES
  ('C#CC(C)(C)NC(=O)c1cc(Cl)cc(Cl)c1', 0.00238);

###

settings: in ethanol, 298.15 K
measurement-kind: solubility (mole fraction)

INSERT INTO measurements (smiles_record, measurement_kind, endpoint_value) VALUES
  ('C#CC(C)(C)NC(=O)c1cc(Cl)cc(Cl)c1', 'solubility (mole fraction)', 0.0131);

###

settings: in ethanol, 313.15 K
measurement-kind: solubility (mole fraction)

INSERT INTO measurements (smiles_record, endpoint_value) VALUES
  ('C#CC(C)(C)NC(=O)c1cc(Cl)cc(Cl)c1', 0.0205);
